biological target: T1, Recombinant Human FGFR2 alpha (IIIc) Fc Chimera Protein, CF (R&D systems, 712-FR-050) (human, UniProt P21802 22-377); experiment: ELISA on plate-bound FGFR2-Fc
T1 construct: bought; not shown: Fc part of the chimera
T1 sequence (P21802 22-377, change not shown): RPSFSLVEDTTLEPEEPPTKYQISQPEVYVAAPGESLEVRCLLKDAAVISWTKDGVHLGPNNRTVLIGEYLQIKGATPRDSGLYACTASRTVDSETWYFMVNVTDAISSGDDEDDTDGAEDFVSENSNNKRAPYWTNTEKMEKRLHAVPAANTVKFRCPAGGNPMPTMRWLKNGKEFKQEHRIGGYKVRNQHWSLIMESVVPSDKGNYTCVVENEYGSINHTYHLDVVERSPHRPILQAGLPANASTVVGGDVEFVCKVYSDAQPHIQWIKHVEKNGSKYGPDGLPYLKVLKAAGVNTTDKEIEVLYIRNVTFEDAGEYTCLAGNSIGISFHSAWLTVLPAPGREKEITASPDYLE
Bridge positions count the residues as written; N and C are the ends. Ends that are not written are not given here. COCH2 = acetyl group that carries the bridge
measured_attribute: ELISA luminescence signal at 10 nmol/L peptide, relative to SEQ ID NO: 47 (=1)

binder YCEENYLDPPQYQYFIYFK(COCH2)Y (thioether 2-19 (inferred)) [cyclic peptide SEQ ID NO: 237] , ELISA luminescence signal at 10 nmol/L peptide, relative to SEQ ID NO: 47 (=1) observed: ≥ 0.7 ratio

binder LCRNYINPQQWRYFALYK(COCH2)N (thioether 2-18) [cyclic peptide SEQ ID NO: 117] , ELISA luminescence signal at 10 nmol/L peptide, relative to SEQ ID NO: 47 (=1) observed: ≥ 0.7 ratio

binder QCQFLNYVNHVQWHYFWVFK(COCH2)S (thioether 2-20) [cyclic peptide SEQ ID NO: 401] , ELISA luminescence signal at 10 nmol/L peptide, relative to SEQ ID NO: 47 (=1) observed: 0.1 to 0.5 ratio

binder YCEYNYLDPEQYQYFIYFK(COCH2)Y (thioether 2-19 (inferred)) [cyclic peptide SEQ ID NO: 172] , ELISA luminescence signal at 10 nmol/L peptide, relative to SEQ ID NO: 47 (=1) observed: ≥ 0.7 ratio

binder KCQNFINPVQWRYFQHYKN (not fully specified; thioether ring (C)-(K(acetyl))) [cyclic peptide SEQ ID NO: 68] , ELISA luminescence signal at 10 nmol/L peptide, relative to SEQ ID NO: 47 (=1) observed: ≥ 0.7 ratio

binder QCPQNFINPVQWRYFQHVK(COCH2)N (thioether 2-19) [cyclic peptide SEQ ID NO: 91] , ELISA luminescence signal at 10 nmol/L peptide, relative to SEQ ID NO: 47 (=1) observed: 0.1 to 0.5 ratio

binder YCEENYLDPTQYQYFIYFK(COCH2)Y (thioether 2-19 (inferred)) [cyclic peptide SEQ ID NO: 247] , ELISA luminescence signal at 10 nmol/L peptide, relative to SEQ ID NO: 47 (=1) observed: ≥ 0.7 ratio

binder QCPQNFINPVQWRYRQHYK(COCH2)N (thioether 2-19 (inferred)) [cyclic peptide SEQ ID NO: 90] , ELISA luminescence signal at 10 nmol/L peptide, relative to SEQ ID NO: 47 (=1) observed: 0.1 to 0.5 ratio

binder PCVQNYFNDLQWIFLQHYK(COCH2)R (thioether 2-19) [cyclic peptide SEQ ID NO: 128] , ELISA luminescence signal at 10 nmol/L peptide, relative to SEQ ID NO: 47 (=1) observed: ≥ 0.7 ratio

binder YCEENYLDPEQYQYFIYFK(COCH2)S (thioether 2-19 (inferred)) [cyclic peptide SEQ ID NO: 316] , ELISA luminescence signal at 10 nmol/L peptide, relative to SEQ ID NO: 47 (=1) observed: ≥ 0.7 ratio

binder SCQGNWISNTQFRYFIAYK(COCH2)T (thioether 2-19 (inferred); not fully specified (residue 1); printed as s-(C)-QGNWISNTQFRYFIAY-(K(acetyl))-T) [cyclic peptide SEQ ID NO: 49] , ELISA luminescence signal at 10 nmol/L peptide, relative to SEQ ID NO: 47 (=1) observed: ≥ 0.7 ratio

These measurements were taken from patent US20260008815A1.
